- Target: T1, hRpn13 (1–150) (human, UniProt Q16186 1-150)
- T1 construct: human Rpn13/Adrm1, Pru (pleckstrin-like receptor for ubiquitin) domain, residues 1-150; also called hRpn13 Pru domain; hRpn13 Pru
- T1 sequence (Q16186 1-150): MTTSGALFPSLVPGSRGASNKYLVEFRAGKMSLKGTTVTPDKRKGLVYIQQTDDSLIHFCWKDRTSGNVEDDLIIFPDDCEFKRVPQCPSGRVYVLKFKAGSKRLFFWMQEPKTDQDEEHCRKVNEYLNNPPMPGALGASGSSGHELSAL
- Experiment Description: ITC; 200 μM hRpn2 (916-953) injected into 20 μM hRpn13 (1-150) in the cell; 25°C; 20 mM sodium phosphate, 50 mM NaCl, 10 mM βME, pH 6.5; one-site fit
- Protocol Conditions: both partners purified
Value Kind: Kd (nM)
Number in nM, nothing else.

Note to self: Kd recorded for GPGSDTSEDIEELVEPVAAHGPKIEEEEQEPEPPEPFEYIDD (amino acids that remained at the N-terminal end from the PreScission protease tag after cleavage; human Rpn2/PSMD1, proteasome PC repeat protein, residues 916-953 (the C-terminal 38 amino acids); also called hRpn2-derived peptide; 38-amino acid peptide derived from the C-terminus of hRpn2/PSMD1; source: E. coli, purified (glutathione S-sepharose, PreScission cleavage, Superdex 75); not shown: …) [hRpn2 (916–953)] was 12
